- assayed target: Dihydroorotate dehydrogenase (quinone), mitochondrial (Plasmodium falciparum (isolate 3D7))
- procedure details: PfDHODH enzyme inhibitors, primary screen, biochemical, C-terminal His tag, absorbance 600 nm (AID 1175);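 further: recombinant parasite enzyme with a five histidine tag at its C terminus; test concentration not given here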
- assay context: DCIP absorbance 600 nm, higher = more signal, called active from +8 up or from −8 down
measure name: composite z-score
Output: the number by itself.

| structure | composite z-score |
| --- | --- |
| O=C(NC1CC1)[C@@H]1c2ccccc2C(=O)N(Cc2ccccc2)[C@H]1c1ccc(CO)cc1 | -0.0098 |
| COCCOC(=O)N1C(=O)[C@@]2(c3cc(C#CC4=CCCCC4)ccc31)[C@H](C(=O)N1CCN(c3ncccn3)CC1)[C@H]1C(=O)O[C@H](c3ccccc3)[C@H](c3ccccc3)N1[C@@H]2c1ccc(O)cc1 | 0.332 |
| COCCCNC(=O)[C@]1(Cc2ccccc2CN=[N+]=[N-])N=C(c2ccc(OCCCO)cc2)O[C@@H]1c1ccccc1 | 0.633 |
| CN(C)CCCNC(=O)[C@@H]1c2ccccc2C(=O)N(CC23CC4CC(CC(C4)C2)C3)[C@H]1c1ccc(CO)cc1 | -0.184 |
| C=CCOC(=O)[C@H]1[C@@H]2C(=O)O[C@@H](c3ccccc3)[C@@H](c3ccccc3)N2[C@@H](c2ccc(OCCOC(=O)[C@H]3C[C@H]4C(=O)N[C@@H](Cc5ccccc5)C(=O)N4[C@H]3c3cccc(OCCO)c3)cc2)[C@]12C(=O)Nc1ccc(I)cc12 | 0.64 |

Please turn your attention to the following entry.
-- ask Which composite z-score value belongs to `COCCOC(=O)N1C(=O)[C@@]2(c3cc(C#Cc4ccc(OC)cc4)ccc31)[C@H](C(=O)NC[C@H](O)c1ccccc1)[C@H]1C(=O)O[C@H](c3ccccc3)[C@H](c3ccccc3)N1[C@@H]2c1ccc(O)cc1` ?
-- reply -0.352

Every entry's value here was drawn from PubChem BioAssay.
